# Method: Selectivity ratio of Ki for uPA to Ki for human recombinant factor 9a
Quantity kind: Ratio Ki

Examples from the recorded data:
1) CN(C)Cc1ccccc1NC(=O)OCC(Oc1cccc2sc(C(=N)N)cc12)c1ccccc1 (stereo not given) :: 76
2) Cc1n[nH]c(C)c1NC(=O)OCC(Oc1cccc2sc(C(=N)N)cc12)c1ccccc1 (stereo not given) :: 7
3) CNCc1cc(NC(=O)OCC(Oc2cccc3sc(C(=N)N)cc23)c2ccccc2)n(C)n1 (stereo not given) :: 50

a. COc1ccc(NC(=O)OC[C@@H](Oc2cccc3sc(C(=N)N)cc23)c2ccccc2)cc1
b. N=C(N)c1cc2c(OC(COC(=O)Nc3ccccc3CN)c3ccccc3)cccc2s1 (stereo not given)
Prompt: Between a and b , which one has the lower reported Ratio Ki value? Let me know the label of the one you choose.
Response: a
(a: 47, b: 74)

---

# System tested: Coagulation factor IX (Homo sapiens)
# Sequence (P00740 47-191 limits assumed): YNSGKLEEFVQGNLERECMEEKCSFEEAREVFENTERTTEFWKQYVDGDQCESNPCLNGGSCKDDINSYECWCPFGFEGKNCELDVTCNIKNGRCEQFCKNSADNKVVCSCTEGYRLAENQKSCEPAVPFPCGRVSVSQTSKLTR
# Sequence (P00740 227-461 limits assumed): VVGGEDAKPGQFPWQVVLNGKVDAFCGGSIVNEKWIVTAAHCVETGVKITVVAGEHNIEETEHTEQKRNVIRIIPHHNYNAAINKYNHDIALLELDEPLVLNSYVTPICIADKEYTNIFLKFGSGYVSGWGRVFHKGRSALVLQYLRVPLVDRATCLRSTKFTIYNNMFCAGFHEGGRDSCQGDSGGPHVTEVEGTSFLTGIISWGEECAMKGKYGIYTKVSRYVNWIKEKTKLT
# Method: Inhibition of human recombinant factor 9a by amidolytic assay
Quantity kind: Ki (nM)

Here's what some known entries look like.
1) CN(C)Cc1ccccc1NC(=O)OCC(Oc1cc(F)cc2sc(C(=N)N)cc12)c1ccccc1 (stereo unspecified) :: 8.1
2) N=C(N)c1cc2c(OC(COC(=O)Nc3c(F)cccc3F)c3ccccc3)cccc2s1 (stereo unspecified) :: 7
3) N=C(N)c1cc2c(OC(COC(=O)Nc3ccccc3F)c3ccccc3)cccc2s1 (stereo unspecified) :: 5

A. N=C(N)c1cc2c(OC(COC(=O)Nc3ccccc3CN)c3ccccc3)cc(F)cc2s1 (stereo unspecified)
B. COc1ccc(NC(=O)OC[C@H](Oc2cccc3sc(C(=N)N)cc23)c2ccccc2)cc1
Prompt: Of A and B , which carries the smaller reported Ki figure? Please reply using the label of the selected record.
Response: B
(B: 3 nM, A: 4.4 nM)

a. CNCc1c(NC(=O)OCC(Oc2cccc3sc(C(=N)N)cc23)c2ccccc2)c(C)nn1C (stereo unspecified)
b. N=C(N)c1cc2c(OC(COC(=O)NCc3ccccc3)c3ccccc3)cccc2s1 (stereo unspecified)
Prompt: Between a and b , which one has the lower reported Ki value? Pick one; state its label.
Response: a
(a: 5 nM, b: 61 nM)

a. CN1CCN(Cc2ccc(NC(=O)OCC(Oc3cccc4sc(C(=N)N)cc34)c3ccccc3)cc2)CC1 (stereo unspecified)
b. CC(C)CNCc1ccccc1NC(=O)OCC(Oc1cccc2sc(C(=N)N)cc12)c1ccccc1 (stereo unspecified)
Prompt: Pick one, a or b : lowest reported Ki. To answer, give the label that identifies your chosen option.
Response: b
(b: 2 nM, a: 10 nM)

---

# Tested on: Plasma
# Method: Anticoagulant potency in human plasma assessed as concentration required to double the thrombin time
# Format: functional
# Activity values compiled below
I only need the number, in µM, no unit after it.

These recorded examples may help you get a feel for the data.
1) Cc1nn(C)c(CNC(C)C)c1NC(=O)OCC(Oc1cccc2sc(C(=N)N)cc12)c1ccccc1 (stereo not given) :: 25
2) N=C(N)c1cc2c(OC(COC(=O)Nc3ccccc3CN3CCNCC3)c3ccccc3)cccc2s1 (stereo not given) :: 20
3) CNCc1c(NC(=O)OCC(Oc2cccc3sc(C(=N)N)cc23)c2ccccc2)c(C)nn1C (stereo not given) :: 56

Now let's try a different one.
Prompt: So what Activity did Cc1cc(NC(=O)OCC(Oc2cccc3sc(C(=N)N)cc23)c2ccccc2)n(C)n1 (stereo not given) get with Plasma?
Response: 60
